# Tgt: GAK (Homo sapiens, UniProt O14976)
# Construct: made in house; host or cells: T7 phage grown in E. coli host derived from BL21
# Sequence (O14976 1-1311): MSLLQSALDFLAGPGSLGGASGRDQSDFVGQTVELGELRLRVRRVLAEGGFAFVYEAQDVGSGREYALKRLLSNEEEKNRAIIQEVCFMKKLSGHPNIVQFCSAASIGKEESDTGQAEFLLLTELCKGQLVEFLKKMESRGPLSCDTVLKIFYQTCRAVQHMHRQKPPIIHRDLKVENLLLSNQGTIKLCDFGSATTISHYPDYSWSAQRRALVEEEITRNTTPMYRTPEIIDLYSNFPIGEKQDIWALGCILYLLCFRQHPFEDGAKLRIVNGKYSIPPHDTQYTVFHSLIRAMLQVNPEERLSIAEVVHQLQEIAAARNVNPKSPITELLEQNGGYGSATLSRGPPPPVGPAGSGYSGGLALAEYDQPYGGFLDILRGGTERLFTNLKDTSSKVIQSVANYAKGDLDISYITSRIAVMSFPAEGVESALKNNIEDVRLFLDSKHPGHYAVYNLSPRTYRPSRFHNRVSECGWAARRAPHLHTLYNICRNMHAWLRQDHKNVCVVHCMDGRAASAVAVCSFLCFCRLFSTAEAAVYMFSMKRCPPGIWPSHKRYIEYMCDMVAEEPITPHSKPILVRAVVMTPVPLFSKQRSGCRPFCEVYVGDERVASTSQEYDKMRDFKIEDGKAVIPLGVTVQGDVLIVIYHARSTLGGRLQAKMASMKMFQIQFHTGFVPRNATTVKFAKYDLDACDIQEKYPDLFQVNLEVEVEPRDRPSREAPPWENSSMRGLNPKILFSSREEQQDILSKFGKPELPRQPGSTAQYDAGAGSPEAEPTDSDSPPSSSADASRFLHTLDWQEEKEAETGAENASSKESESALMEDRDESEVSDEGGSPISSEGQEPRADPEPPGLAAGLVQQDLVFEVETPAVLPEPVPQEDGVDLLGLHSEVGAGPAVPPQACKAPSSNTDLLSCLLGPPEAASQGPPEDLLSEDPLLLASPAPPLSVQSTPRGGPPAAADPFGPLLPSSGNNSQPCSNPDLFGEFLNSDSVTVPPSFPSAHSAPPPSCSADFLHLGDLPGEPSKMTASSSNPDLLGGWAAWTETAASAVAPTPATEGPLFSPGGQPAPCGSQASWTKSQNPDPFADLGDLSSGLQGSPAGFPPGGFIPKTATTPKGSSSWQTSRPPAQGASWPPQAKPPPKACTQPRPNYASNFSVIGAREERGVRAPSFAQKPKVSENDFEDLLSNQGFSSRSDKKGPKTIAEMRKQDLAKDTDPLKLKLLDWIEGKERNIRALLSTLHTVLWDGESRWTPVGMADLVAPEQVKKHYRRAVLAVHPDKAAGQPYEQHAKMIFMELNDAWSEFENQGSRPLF
# Assay Comment: GAK binding assay (T7 phage kinase competition binding)
# Condition Notes: single concentration of 10 μM; lower numbers indicate stronger hits; read-out: % Ctrl
remaining binding at 10 µM values by entry
Hi! Could you send only the number? It should be in %, unit omitted.

Below, each entry is followed by its recorded remaining binding at 10 µM result.
>>> value_observed("COc1ccc(-c2cnc3c(N)snc3c2)cc1OC")
70
>>> value_observed("c1ccc(-c2cnc3c(N4CCOCC4)snc3c2)cc1")
0.8
>>> value_observed("c1cc(-c2cnc3c(N4CCOCC4)snc3c2)co1")
0.15
>>> value_observed("CN1CCN(c2snc3cc(-c4cccnc4)cnc23)CC1")
88
>>> value_observed("COc1ccc(-c2cnc3c(N4CCOCC4)snc3c2)c(OC)c1")
6.3
>>> value_observed("COc1ccc(-c2cnc3c(N4CCCC4)snc3c2)cc1OC")
0
>>> value_observed("COc1ccc(-c2cnc3c(N4CCOCC4)snc3c2)cc1OC")
0
>>> value_observed("COc1ccc(OC)c(-c2cnc3c(N4CCOCC4)snc3c2)c1")
0.7

Q. Given Nc1snc2cc(-c3cccnc3)cnc12 , respond with its remaining binding at 10 µM.
A. 80

Q. Given COc1ccc(-c2cnc3c(NCC4CC4)snc3c2)cc1OC , respond with its remaining binding at 10 µM.
A. 0

Q. Given COc1snc2cc(-c3ccc(F)cc3)cnc12 , respond with its remaining binding at 10 µM.
A. 37

Q. Given Fc1ccc(-c2cnc3c(N4CCOCC4)snc3c2)cc1 , respond with its remaining binding at 10 µM.
A. 11

Q. Given Nc1snc2cc(-c3ccc(F)cc3)cnc12 , respond with its remaining binding at 10 µM.
A. 55

Q. Given COc1cc(-c2cnc3c(N4CCOCC4)snc3c2)cc(OC)c1OC , respond with its remaining binding at 10 µM.
A. 0

Q. Given OCCNc1snc2cc(-c3cccnc3)cnc12 , respond with its remaining binding at 10 µM.
A. 45

Q. Given CN1CCN(c2snc3cc(-c4ccccc4)cnc23)CC1 , respond with its remaining binding at 10 µM.
A. 76

Q. Given c1csc(-c2cnc3c(N4CCOCC4)snc3c2)c1 , respond with its remaining binding at 10 µM.
A. 0.05

Q. Given COc1ccc(-c2cnc3c(N(CCO)CCO)snc3c2)cc1OC , respond with its remaining binding at 10 µM.
A. 4

Q. Given OCCNc1snc2cc(-c3ccsc3)cnc12 , respond with its remaining binding at 10 µM.
A. 0.3

----------
CC50 values by entry
# Assay Comment: Cytotoxicity in CPE assay, Vero76
# Condition Notes: African green monkey, CC50, Neutral Red
Hi! Could you send only the number? It should be in µg/mL, unit omitted.

Below, each entry is followed by its recorded CC50 result.
>>> value_observed("COc1ccc(-c2cnc3c(NCC4CC4)snc3c2)cc1OC [Example 76]")
33
>>> value_observed("c1ccc(-c2cnc3c(N4CCOCC4)snc3c2)cc1 [Example 23]")
50

Next molecule, CC50 to be filled in.
Q. Given COc1cc(-c2cnc3c(N4CCOCC4)snc3c2)ccc1O [Example 64] , respond with its CC50.
A. 0.97

----------
# Tested on: Vero76
# Condition Notes: African green monkey
CC50 values by entry
Hi! Could you send only the number? It should be in mg/L, unit omitted.

>>> value_observed("COc1cc(-c2cnc3c(N4CCOCC4)snc3c2)ccc1N [Example 50]")
13

Q. Given COc1cc(-c2cnc3c(N4CCOCC4)snc3c2)cc(OC)c1OC [Example 49] , respond with its CC50.
A. 50

----------
CC50 values by entry
# Assay Comment: in vitro
# Condition Notes: African green monkey
Hi! Could you send only the number? It should be in µg/mL, unit omitted.

>>> value_observed("COc1cc(-c2cnc3c(N4CCOCC4)snc3c2)cc(OC)c1OC")
34

Next compound, CC50 to be filled in.
Q. Given COc1cc(-c2cnc3c(N4CCOCC4)snc3c2)ccc1N , respond with its CC50.
A. 15

----------
# Tgt: UniProt O14976
Note to self: Kd under 200 nM means MET, ties and anything higher get NOT MET.

Some entries whose results are on file:
>>> answer_label("COc1cc(-c2cnc3c(N4CCOCC4)snc3c2)cc(OC)c1OC [Example 49]")
"MET"
>>> answer_label("COc1ccc(-c2cnc3c(N(CCO)CCO)snc3c2)cc1OC [Example 70]")
"NOT MET"

Q. Lab note: confirm whether the reported Kd for this compound is below 200 nM, equality not counting. compound: COc1cc(-c2cnc3c(N4CCOCC4)snc3c2)ccc1N [Example 50]
A. MET

Q. Lab note: confirm whether the reported Kd for this compound is below 200 nM, equality not counting. compound: c1ccc(-c2cnc3c(N4CCOCC4)snc3c2)cc1 [Example 23]
A. NOT MET

Q. Lab note: confirm whether the reported Kd for this compound is below 200 nM, equality not counting. compound: COc1ccc(-c2cnc3c(N4CCSCC4)snc3c2)cc1OC [Example 58]
A. NOT MET

Q. Lab note: confirm whether the reported Kd for this compound is below 200 nM, equality not counting. compound: COc1ccc(-c2cnc3c(NCC4CC4)snc3c2)cc1OC [Example 76]
A. MET

----------
# System: Huh-7.5 cells
# Condition Notes: human
Recorded Endpoint: CC50

Q. Give CC50 for COc1cc(-c2cnc3c(N4CCOCC4)snc3c2)cc(OC)c1OC tested on Huh-7.5 cells.
A. 23.3 µM

----------
# Tgt: GAK (Homo sapiens, UniProt O14976)
# Construct: made in house; host or cells: T7 phage grown in E. coli host derived from BL21
# Assay Comment: GAK binding assay (T7 phage kinase competition binding)
# Condition Notes: single concentration of 10 μM; lower numbers indicate stronger hits; read-out: % Ctrl
remaining binding at 10 µM values by entry
Hi! Could you send only the number? It should be in %, unit omitted.

Below, each entry is followed by its recorded remaining binding at 10 µM result.
>>> value_observed("Nc1snc2cc(-c3ccccc3)cnc12 [Example 4]")
68
>>> value_observed("OCCNc1snc2cc(-c3ccc(F)cc3)cnc12 [Example 32]")
2.2
>>> value_observed("CN1CCN(c2snc3cc(-c4ccc(F)cc4)cnc23)CC1 [Example 42]")
72
>>> value_observed("c1cc2c(cc1-c1cnc3c(N4CCOCC4)snc3c1)OCO2 [Example 51]")
51

Q. Give remaining binding at 10 µM for OCCNc1snc2cc(-c3ccccc3)cnc12 [Example 31] tested on GAK (Homo sapiens, UniProt O14976).
A. 18

Q. Give remaining binding at 10 µM for COc1ccc(-c2cnc3c(N4CCN(C)CC4)snc3c2)cc1OC [Example 40] tested on GAK (Homo sapiens, UniProt O14976).
A. 19

Q. Give remaining binding at 10 µM for COc1ccc(-c2cnc3c(NCCc4ccccc4)snc3c2)cc1OC [Example 74] tested on GAK (Homo sapiens, UniProt O14976).
A. 81

Cited source: patent US9822127B2
